Value source: ChEMBL document CHEMBL1138514

Tested on: MDR1
protocol_details: Permeability from apical to basolateral side of MDCK2 cells over expressing MDR1 at 5 uM in presence LSN335984 pretreated for 30 mins measured after 1 hr
experimental_context: dog, MDCK-MDR1, with LSN335984 (concentration not stated)

{"cpd_smiles": "C[N+](C)=c1ccc2c(-c3ccccc3)c3cc4c5c(c3[se]c-2c1)CCCN5CCC4.F[P-](F)(F)(F)(F)F", "Papp A→B at 1 h, 5 µM, ×10⁻⁶ cm/s": 1.3}
{"cpd_smiles": "CN(C)c1ccc2c(-c3ccc(CCl)cc3)c3ccc(=[N+](C)C)cc-3oc2c1.[Br-]", "Papp A→B at 1 h, 5 µM, ×10⁻⁶ cm/s": 1.4}
